In this section, each of the compounds is paired with its reported cell viability.
- System: Calu-3
- protocol.text: cell viability relative to DMSO; higher = less toxic
- reported.conditions: 72 h; 1000 nM
The response must be a number in % with no trailing unit.

Record excerpt, results attached:
compound	units.text	cell viability
O=[N+]([O-])c1ncc[nH]1	%	92.5
OC[C@H]1NC[C@@H](O)[C@@H](O)[C@@H]1O	%	95.4
CCN[C@H]1CN(CCCOC)S(=O)(=O)c2sc(S(N)(=O)=O)cc21 [brinzolamide]	%	112
O=C1C2C=Nc3ccccc3C2=NN1c1ccc(Cl)cc1 (stereo unspecified)	%	95.8
C=C(C)[C@@H]1CC[C@]2(C(=O)O)CC[C@]3(C)[C@H](CC[C@@H]4[C@@]5(C)CC[C@H](OC(=O)CC(C)(C)C(=O)O)C(C)(C)[C@@H]5CC[C@]43C)[C@@H]12	%	92.9
OC[C@@H](O)[C@@H](O)CO	%	97
CCCCNc1ccc(C(=O)OCCN(C)C)cc1	%	98.4
Cc1ccc(CC2(O)CCN(CCOc3ccc(O)cc3)CC2)cc1	%	95.9
CCN(CC)CCOC(=O)C(c1ccccc1)C1CCCCC1 (stereo unspecified)	%	97.3
N#CC(c1ccnc(OCc2ccc(CN3CCOCC3)cc2)n1)c1nc2ccccc2s1 (stereo unspecified)	%	98.5

Please fill in: cell viability reported for NC(=O)C1CCCc2c1[nH]c1ccc(Cl)cc21 (stereo unspecified) = 96.6

Please fill in: cell viability reported for `Nc1nc(CC(=O)Nc2ccc(CCNC[C@H](O)c3ccccc3)cc2)cs1` = 110

Please fill in: cell viability reported for `COC[C@@H](c1ccc(C(F)(F)F)cc1)N1CCN(C2(C)CCN(C(=O)c3c(C)ncnc3C)CC2)C[C@@H]1C` = 96.6

Please fill in: cell viability reported for `NCCCCCc1c[nH]cn1` = 98.5

Please fill in: cell viability reported for `CCOCCn1c(C2CCN(CCc3ccc(C(C)(C)C(=O)O)cc3)CC2)nc2ccccc21` = 97.8

Please fill in: cell viability reported for `CC(C)C[C@H](NC(=O)CNC(=O)c1cc(Cl)ccc1Cl)B(O)O` = 5.8
